Tested on: Blattella germanica (cockroach nymphs)
Assay: Residual test, cockroach nymphs (BG), Plastic pot
Format: in vivo
Conditions: 72 h, 500 ppm, 3 days, read-out: BG grading of mortality
RECORDED METRIC: mortality at 500 ppm

Please review the following examples before continuing.
# MOLECULE, mortality at 500 ppm
data = [
    ("CCOc1ccc(C(CCC(C)c2cccc(Oc3ccccc3)c2)C(F)(F)F)cc1 (racemic)", "80 to 100%"),
    ("CCOc1c(F)cc(C(CCCc2cccc(Oc3ccccc3)c2)C(F)(F)F)cc1F (racemic)", "80 to 100%"),
    ("Fc1cc(C(CCCc2cccc(Oc3ccccc3)c2)C(F)(F)F)cc(F)c1OC(F)(F)F (racemic)", "< 50%"),
]

Enquiry: Can you look up the measured mortality at 500 ppm of CC1(C)Oc2ccc(C(CCCc3cccc(Oc4ccccc4)c3)C(F)(F)F)cc2O1 (stereo not shown) for me?
Return: 80 to 100%
